Examples of compounds with documented Ki follow.
Target: β-lactamase of Enterobacter cloacae P99 (Enterobacter cloacae, UniProt P05364)
Construct: Class C β-lactamase as that extracted from Enterobacter cloacae P99; host or cells: Enterobacter cloacae P99 (enzyme described as extracted from this strain)
Sequence (P05364 21-381): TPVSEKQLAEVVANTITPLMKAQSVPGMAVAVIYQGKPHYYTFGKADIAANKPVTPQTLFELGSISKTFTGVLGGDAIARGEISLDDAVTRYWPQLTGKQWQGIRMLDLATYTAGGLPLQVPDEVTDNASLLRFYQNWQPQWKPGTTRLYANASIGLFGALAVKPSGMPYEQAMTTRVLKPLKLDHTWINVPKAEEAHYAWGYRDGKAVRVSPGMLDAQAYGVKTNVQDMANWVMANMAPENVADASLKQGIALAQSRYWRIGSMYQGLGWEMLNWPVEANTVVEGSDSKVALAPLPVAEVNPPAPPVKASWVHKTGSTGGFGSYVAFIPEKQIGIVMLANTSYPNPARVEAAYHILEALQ
Test: Ki of conjugates, calculated using the β-lactamase of Enterobacter cloacae P99
Type: biochemical
The response must be a number in nM with no trailing unit.

A selection of reference data follows.
COMPOUND | READOUT_TYPE | RECORDED_VALUE
Cc1onc(-c2ccc(NC(=O)CCOC3CCC4C5CCc6cc(O)ccc6C5CCC34C)cc2)c1C(=O)NC1C(=O)N2C1SC(C)(C)C2C(=O)O (stereo not drawn) [Conjugate 23] | Ki | 19
Cc1onc(-c2ccc(C(=O)NCCCCC(=O)OC3CCC4C5CCC6=CC(=O)CCC6(C)C5CCC34C)cc2)c1C(=O)NC1C(=O)N2C1SC(C)(C)C2C(=O)O (stereo not drawn) [Conjugate 9] | Ki | 17

Measured Ki, Cc1onc(-c2ccc(C(=O)NCCCCC(=O)OC3CCC4C5CCC6=CC(=O)CCC6C5CCC34C)cc2)c1C(=O)NC1C(=O)N2C1SC(C)(C)C2C(=O)O (stereo not drawn) [Conjugate 8] : 23

Measured Ki, Cc1onc(-c2ccc(OCCOC3CCC4C5CCC6=CC(=O)CCC6(C)C5CCC34C)c(Cl)c2)c1C(=O)NC1C(=O)N2C1SC(C)(C)C2C(=O)O (stereo not drawn) [Conjugate 12] : 15

Measured Ki, Cc1onc(-c2ccc(C(=O)OC3CCC4C5CCC6=CC(=O)CCC6C5CCC34C)cc2)c1C(=O)NC1C(=O)N2C1SC(C)(C)C2C(=O)O (stereo not drawn) [Conjugate 5] : 18

Measured Ki, Cc1onc(-c2ccc(C(=O)NCCCOC3CCC4C5CCC6=CC(=O)CCC6C5CCC34C)cc2)c1C(=O)NC1C(=O)N2C1SC(C)(C)C2C(=O)O (stereo not drawn) [Conjugate 15] : 28

----------
Target: β-lactamase of Enterobacter cloacae P99 (Enterobacter cloacae)
Construct: Class C β-lactamase as that extracted from Enterobacter cloacae P99
Experiment: Ki of conjugates, calculated using the β-lactamase of Enterobacter cloacae P99
READOUT_TYPE: Ki (nM)
The response must be a number in nM with no trailing unit.

A selection of reference data follows.
MOLECULE | Ki [nM]
Cc1onc(-c2ccc(OC(=O)CCC(=O)OC3CCC4C5CCC6=CC(=O)CCC6(C)C5CCC34C)cc2)c1C(=O)NC1C(=O)N2C1SC(C)(C)C2C(=O)O (stereo not drawn) [Conjugate 18] | 23
Cc1onc(-c2ccc(OCCOC3CCC4C5CCC6=CC(=O)CCC6C5CCC34C)c(Cl)c2)c1C(=O)NC1C(=O)N2C1SC(C)(C)C2C(=O)O (stereo not drawn) [Conjugate 11] | 12
Cc1onc(-c2ccc(C(=O)NCCCOC3CCC4C5CCc6cc(O)ccc6C5CCC34C)cc2)c1C(=O)NC1C(=O)N2C1SC(C)(C)C2C(=O)O (stereo not drawn) [Conjugate 14] | 18
CC(=O)C1CCC2C3CCC4=CC(=O)CCC4(C)C3C(OCCCNC(=O)c3ccc(-c4noc(C)c4C(=O)NC4C(=O)N5C4SC(C)(C)C5C(=O)O)cc3)CC12C (stereo not drawn) [Conjugate 17] | 21
Cc1onc(-c2ccc(C(=O)OC3CCC4C5CCc6cc(O)ccc6C5CCC34C)cc2)c1C(=O)NC1C(=O)N2C1SC(C)(C)C2C(=O)O (stereo not drawn) [Conjugate 4] | 24

Moving on to another molecule below.
Measured Ki, Cc1onc(-c2ccc(NC(=O)CCOC3CCC4C5CCC6=CC(=O)CCC6(C)C5CCC34C)cc2)c1C(=O)NC1C(=O)N2C1SC(C)(C)C2C(=O)O (stereo not drawn) [Conjugate 20] : 29

Reference source for all entries: patent US20030235877A1
